System: 323965-272-R-J2-PDC complex spheroid viability
PROTOCOL: Anticancer human tumor 323965-272-R-J2-PDC patient-derived pancreatic carcinoma cell line growth inhibition [CLK]
CONDITION CONTEXT: second compound 0.316 µM; first compound 0.1 µM; active compounds read low
# viability, T/C per entry
PARAMETER MEASURED: viability, T/C (%)

Cn1ncnc1[C@H]1c2n[nH]c(=O)c3cc(F)cc(c23)N[C@@H]1c1ccc(F)cc1 + CN1CCN(c2cc(C(=O)Nc3cc4cc(-c5cnn(C)c5)ccc4cn3)ccn2)CC1 :: 21.8
CCCS(=O)(=O)Nc1ccc(F)c(C(=O)c2c[nH]c3ncc(-c4ccc(Cl)cc4)cc23)c1F + CN1CCN(c2cc(C(=O)Nc3cc4cc(-c5cnn(C)c5)ccc4cn3)ccn2)CC1 :: 26.3
COc1cccc2c1C(=O)c1c(O)c3c(c(O)c1C2=O)CC(O)(C(=O)CO)CC3OC1CC(N)C(O)C(C)O1 (stereo not given) + CN1CCN(c2cc(C(=O)Nc3cc4cc(-c5cnn(C)c5)ccc4cn3)ccn2)CC1 :: 19.8
CC(CO)NC(=O)c1cc(-c2ccc(Cl)cc2)nn(-c2cnn(C)c2)c1=O (stereo not given) + CN1CCN(c2cc(C(=O)Nc3cc4cc(-c5cnn(C)c5)ccc4cn3)ccn2)CC1 :: 27.2
CCN1CCN(Cc2ccc(Nc3ncc(F)c(-c4cc(F)c5nc(C)n(C(C)C)c5c4)n3)nc2)CC1 + CNC(=O)c1ccc(Nc2nc(OC3CCCC3)c3c(-c4ccc5nc(C)oc5c4)c[nH]c3n2)c(OC)c1 :: 44.2

----------
Recorded viability, T/C, one value per entry.
Tested on: 323965-272-R-J2-PDC complex spheroid viability
PROTOCOL: Anticancer human tumor 323965-272-R-J2-PDC cell line growth inhibition [CLK];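 also: spheroids exposed to agents for seven days before readout; percent of DMSO vehicle control wells so 100% = untreated growth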
CONDITION CONTEXT: second compound 10 µM; first compound 0.3 µM; active compounds read low
PARAMETER MEASURED: viability, T/C (%)

NC(=O)C(=Cn1cnc(-c2cc(C(F)(F)F)cc(C(F)(F)F)c2)n1)c1cncnc1 + CNC(=O)c1ccc(Nc2nc(OC3CCCC3)c3c(-c4ccc5nc(C)oc5c4)c[nH]c3n2)c(OC)c1 :: 39.8
CC(C)CC(NC(=O)C(Cc1ccccc1)NC(=O)c1cnccn1)B(O)O (stereo unspecified) + CN1CCN(c2cc(C(=O)Nc3cc4cc(-c5cnn(C)c5)ccc4cn3)ccn2)CC1 :: 2.98
C=CC(=O)Nc1cc(Nc2nccc(-c3cn(C)c4ccccc34)n2)c(OC)cc1N(C)CCN(C)C + CN1CCN(c2cc(C(=O)Nc3cc4cc(-c5cnn(C)c5)ccc4cn3)ccn2)CC1 :: 3.08
NC(=O)C(=Cn1cnc(-c2cc(C(F)(F)F)cc(C(F)(F)F)c2)n1)c1cncnc1 + CN1CCN(c2cc(C(=O)Nc3cc4cc(-c5cnn(C)c5)ccc4cn3)ccn2)CC1 :: 1.44
CC(C)CC(NC(=O)C(Cc1ccccc1)NC(=O)c1cnccn1)B(O)O (stereo unspecified) + CNC(=O)c1ccc(Nc2nc(OC3CCCC3)c3c(-c4ccc5nc(C)oc5c4)c[nH]c3n2)c(OC)c1 :: 2.07
C=CC(=O)Nc1cc(Nc2nccc(-c3cn(C)c4ccccc34)n2)c(OC)cc1N(C)CCN(C)C + CNC(=O)c1ccc(Nc2nc(OC3CCCC3)c3c(-c4ccc5nc(C)oc5c4)c[nH]c3n2)c(OC)c1 :: 27.7
